# targetOrTestSystem: recombinant human PAI-1 (Homo sapiens)
# assayInfo: Test Example 2: Human PAI-1 Inhibitory Activity (pH 7.4 HEPES buffer, 10 minutes incubation with two-chain tPA)
# Assay type: biochemical
# Design: purchased Molecular Innovations, Inc
# particulars: read-out: Inhibition Rate of PAI-1 Activity (%)
molecules and their reported inhibition at 1 µM
endpointLabel: inhibition at 1 µM (%)

>  <molecule>
CC(C)c1ccc(Oc2cc(-c3ccc(OC(F)(F)F)cc3)ccc2OCC(=O)O)cc1 [Compound 333]

>  <unitLabel>
%

>  <reading>
28

$$$$
>  <molecule>
CCCCCCC(Oc1cc(-c2ccc(OC(F)(F)F)cc2)ccc1Oc1ccc(OC(F)(F)F)cc1)C(=O)O (stereo not drawn) [Compound 326]

>  <unitLabel>
%

>  <reading>
94

$$$$
>  <molecule>
CC(C)(C)[C@H]1CC[C@@H](N(C(=O)C(=O)O)c2ccc(-c3ccc(OC(F)(F)F)cc3)cc2)CC1 [Compound 666]

>  <unitLabel>
%

>  <reading>
89

$$$$
>  <molecule>
O=C(O)C(=O)N(CCCCc1ccccc1)c1cc(-c2ccc(OC(F)(F)F)cc2)ccc1OC1CCCC1 [Compound 658]

>  <unitLabel>
%

>  <reading>
97

$$$$
>  <molecule>
CC(C)(C)c1cccc(Oc2cc(-c3ccc(OC(F)(F)F)cc3)ccc2OCC(=O)O)c1 [Compound 436]

>  <unitLabel>
%

>  <reading>
63

$$$$
>  <molecule>
CC(C)(C)c1ccc(Oc2cc(-c3cccc(OC(F)(F)F)c3)ccc2OCC(=O)O)cc1 [Compound 331]

>  <unitLabel>
%

>  <reading>
83

$$$$
>  <molecule>
CC(C)(C)c1ccc(CN(C(=O)CCCC(=O)O)c2ccc(-c3ccc(OC(F)(F)F)cc3)cc2)cc1 [Compound 604]

>  <unitLabel>
%

>  <reading>
0

$$$$
>  <molecule>
CCC(CC)Oc1ccc(-c2ccc(CCC(=O)O)c(Oc3ccc(C(C)(C)C)cc3)c2)cc1 [Compound 522]

>  <unitLabel>
%

>  <reading>
98

$$$$
>  <molecule>
CC(C)c1ccc(Oc2cc(-c3ccc(OC(F)(F)F)cc3)ccc2/C=C/C(=O)O)cc1 [Compound 509]

>  <unitLabel>
%

>  <reading>
96

$$$$
>  <molecule>
O=C(O)C(=O)N(CCCCc1ccccc1)c1ccc(-c2ccc3ccccc3c2)cc1 [Compound 671]

>  <unitLabel>
%

>  <reading>
23

$$$$
>  <molecule>
CC(C)c1ccccc1Oc1cc(-c2ccc(OC(F)(F)F)cc2)ccc1OCC(=O)O [Compound 513]

>  <unitLabel>
%

>  <reading>
69

$$$$
>  <molecule>
CC(C)(C)c1ccc(COc2c(OCC(=O)O)cccc2-c2ccc(OC(F)(F)F)cc2)cc1 [Compound 117]

>  <unitLabel>
%

>  <reading>
46

$$$$
>  <molecule>
CC(C)(C)c1ccc(Oc2cc(-c3ccc(OC(F)(F)F)cc3)ccc2/C=C\C(=O)O)cc1 [Compound 450]

>  <unitLabel>
%

>  <reading>
58

$$$$
>  <molecule>
CC(C)(C)c1ccc(CN(C(=O)C(=O)O)c2ccc(-c3ccc(OC(F)(F)F)cc3)cc2)cc1 [Compound 129]

>  <unitLabel>
%

>  <reading>
19

$$$$
>  <molecule>
O=C(O)CCc1cc(-c2ccc(OC(F)(F)F)cc2)ccc1OCCCCCOc1ccc(-c2ccc(OC(F)(F)F)cc2)cc1CCC(=O)O [Compound 544]

>  <unitLabel>
%

>  <reading>
56

$$$$

----------
# targetOrTestSystem: recombinant human PAI-1 (Homo sapiens)
# assayInfo: biochemical
# particulars: read-out: Inhibition Rate of PAI Activity (%)

>  <smilesData>
O=C(O)CCc1cc(-c2ccc(OC(F)(F)F)cc2)ccc1OCc1ccc(-c2ccccc2)cc1

>  <inhibition at 5 µM (%)>
21

$$$$
>  <smilesData>
Cc1ccc(COc2ccc(-c3ccc(OC(F)(F)F)cc3)cc2CCC(=O)O)cc1

>  <inhibition at 5 µM (%)>
21

$$$$
>  <smilesData>
Cc1cc(C)cc(COc2ccc(-c3ccc(OC(F)(F)F)cc3)cc2CCC(=O)O)c1

>  <inhibition at 5 µM (%)>
25

$$$$
>  <smilesData>
Cc1cc(C)cc(COc2ccc(-c3ccc(OC(F)(F)F)cc3)cc2CC(=O)O)c1

>  <inhibition at 5 µM (%)>
41

$$$$
>  <smilesData>
O=C(O)CCc1cc(-c2ccc(OC(F)(F)F)cc2)ccc1OCc1cccc(C(F)(F)F)c1

>  <inhibition at 5 µM (%)>
22

$$$$
>  <smilesData>
O=C(O)/C=C/c1cc(-c2ccc(OC(F)(F)F)cc2)ccc1Oc1ccc(OC(F)(F)F)cc1

>  <inhibition at 5 µM (%)>
23

$$$$
>  <smilesData>
O=C(O)CCc1cc(-c2ccc(OC(F)(F)F)cc2)ccc1OCc1ccc(OC(F)(F)F)cc1

>  <inhibition at 5 µM (%)>
29

$$$$
>  <smilesData>
O=C(O)CCc1cc(-c2ccc(OC(F)(F)F)cc2)ccc1Oc1ccc(OC(F)(F)F)cc1

>  <inhibition at 5 µM (%)>
23

$$$$
>  <smilesData>
O=C(O)/C=C/c1cc(-c2ccc(OC(F)(F)F)cc2)ccc1OCc1cccc(C(F)(F)F)c1

>  <inhibition at 5 µM (%)>
24

$$$$

----------
# targetOrTestSystem: recombinant human PAI-1 (Homo sapiens, UniProt P05121)
# Sequence (P05121 24-402): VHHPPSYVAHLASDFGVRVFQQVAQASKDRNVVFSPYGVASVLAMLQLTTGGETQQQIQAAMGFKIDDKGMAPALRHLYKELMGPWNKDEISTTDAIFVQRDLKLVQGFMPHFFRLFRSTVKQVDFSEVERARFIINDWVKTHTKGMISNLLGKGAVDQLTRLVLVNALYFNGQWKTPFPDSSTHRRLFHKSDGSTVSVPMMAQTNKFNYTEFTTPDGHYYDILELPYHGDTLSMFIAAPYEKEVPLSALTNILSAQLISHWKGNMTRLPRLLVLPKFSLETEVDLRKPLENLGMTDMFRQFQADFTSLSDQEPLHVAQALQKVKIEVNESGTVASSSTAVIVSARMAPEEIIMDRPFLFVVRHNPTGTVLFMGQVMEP
# assayInfo: Test Example 2: Human PAI-1 Inhibitory Activity (pH 7.4 HEPES buffer, 10 minutes incubation with two-chain tPA)
# Format: biochemical
# Design: purchased Molecular Innovations, Inc
# particulars: read-out: Inhibition Rate of PAI-1 Activity (%)
endpointLabel: inhibition at 1 µM (%)

>  <smilesData>
CC(C)(C)c1ccc(Oc2cc(-c3ccc(F)cc3)ccc2OCC(=O)O)cc1

>  <endpointLabel>
inhibition at 1 µM

>  <unitLabel>
%

>  <reading>
42

$$$$
>  <smilesData>
CC(C)(C)c1ccc(-c2ccc(/C=C/C(=O)O)c(Oc3ccc(OC(F)(F)F)cc3)c2)cc1

>  <endpointLabel>
inhibition at 1 µM

>  <unitLabel>
%

>  <reading>
90

$$$$
>  <smilesData>
O=C(O)CCc1ccc(-c2ccc(OC(F)(F)F)cc2)cc1OCCCOCc1ccccc1

>  <endpointLabel>
inhibition at 1 µM

>  <unitLabel>
%

>  <reading>
36

$$$$
>  <smilesData>
CC(C)(C)c1ccc(Oc2ccc(-c3ccc(OC(F)(F)F)cc3)cc2N(CCCCc2ccccc2)C(=O)C(=O)O)cc1

>  <endpointLabel>
inhibition at 1 µM

>  <unitLabel>
%

>  <reading>
72

$$$$
>  <smilesData>
CC(C)(C)c1ccc(Oc2cc(-c3ccccc3OC(F)(F)F)ccc2CCC(=O)O)cc1

>  <endpointLabel>
inhibition at 1 µM

>  <unitLabel>
%

>  <reading>
73

$$$$
>  <smilesData>
CCN(CC)c1ccc(N(CCCc2ccccc2)C(=O)C(=O)O)c(-c2ccc(OC(F)(F)F)cc2)c1

>  <endpointLabel>
inhibition at 1 µM

>  <unitLabel>
%

>  <reading>
21

$$$$
>  <smilesData>
CCCCCOc1ccc(-c2cccc(OC(F)(F)F)c2)cc1N(CCCCc1ccccc1)C(=O)C(=O)O

>  <endpointLabel>
inhibition at 1 µM

>  <unitLabel>
%

>  <reading>
69

$$$$
>  <smilesData>
CCCCCOc1cc(-c2ccc(OC(F)(F)F)cc2)cc(OCc2ccc(C(C)(C)C)cc2)c1OCC(=O)O

>  <endpointLabel>
inhibition at 1 µM

>  <unitLabel>
%

>  <reading>
96

$$$$
>  <smilesData>
CC(C)(C)c1ccc(Oc2cc(OCC(=O)O)cc(-c3ccc(OC(F)(F)F)cc3)c2)cc1

>  <endpointLabel>
inhibition at 1 µM

>  <unitLabel>
%

>  <reading>
62

$$$$
>  <smilesData>
CCCCCOc1ccc(-c2ccc(OC(F)(F)F)cc2)cc1N(CCCOCc1ccccc1)C(=O)C(=O)O

>  <endpointLabel>
inhibition at 1 µM

>  <unitLabel>
%

>  <reading>
44

$$$$
>  <smilesData>
O=C(O)CCc1ccc(-c2ccc(OC(F)(F)F)cc2)cc1Oc1ccc2ccccc2c1

>  <endpointLabel>
inhibition at 1 µM

>  <unitLabel>
%

>  <reading>
65

$$$$
>  <smilesData>
CC(C)(C)c1ccc(Oc2cc(-c3ccccc3OC(F)(F)F)ccc2OCC(=O)O)cc1

>  <endpointLabel>
inhibition at 1 µM

>  <unitLabel>
%

>  <reading>
70

$$$$
>  <smilesData>
CC(C)(C)c1ccc(CN(C(=O)CC(=O)O)c2ccc(-c3ccc(OC(F)(F)F)cc3)cc2)cc1

>  <endpointLabel>
inhibition at 1 µM

>  <unitLabel>
%

>  <reading>
11

$$$$

----------
# targetOrTestSystem: recombinant human PAI-1 (Homo sapiens, UniProt P05121)
# assayInfo: Test Example 2: Human PAI-1 Inhibitory Activity (pH 7.4 HEPES buffer, 10 minutes incubation with two-chain tPA)
# Format: biochemical
# Design: purchased Molecular Innovations, Inc
# particulars: read-out: Inhibition Rate of PAI-1 Activity (%)
Label yes when inhibition at 0.1 µM >= 2%; otherwise no.

>  <molecule>
CCCCCOc1ccc(-c2ccc(OC(F)(F)F)cc2)cc1CN(CC(=O)O)c1ccc(C(C)(C)C)cc1 [Compound 647]

>  <labelClass>
yes

$$$$
>  <molecule>
CCCCCOc1cc(-c2ccc(OC(F)(F)F)cc2)cc(OCc2ccc(C(C)(C)C)cc2)c1OCC(=O)O [Compound 301]

>  <labelClass>
yes

$$$$
>  <molecule>
O=C(O)CCc1cc(-c2ccc(OC(F)(F)F)cc2)ccc1OCCCCCOc1ccc(-c2ccc(OC(F)(F)F)cc2)cc1CCC(=O)O [Compound 544]

>  <labelClass>
no

$$$$
>  <molecule>
CCCCCOc1ccc(-c2ccc(C(F)(F)F)cc2)cc1N(CCCCc1ccccc1)C(=O)C(=O)O [Compound 390]

>  <labelClass>
yes

$$$$
>  <molecule>
CC(C)c1ccc(-c2ccc(OCC(=O)O)c(Oc3ccc(C(C)(C)C)cc3)c2)cc1 [Compound 441]

>  <labelClass>
yes

$$$$
>  <molecule>
CC(C)(C)c1ccc(Oc2cc(-c3ccccc3OC(F)(F)F)ccc2/C=C/C(=O)O)cc1 [Compound 466]

>  <labelClass>
yes

$$$$
>  <molecule>
CCCCC(Oc1cc(-c2ccc(OC(F)(F)F)cc2)ccc1OCCCCc1ccc(Cl)cc1)C(=O)O (stereo not shown) [Compound 325]

>  <labelClass>
yes

$$$$
>  <molecule>
CCC(CC)Oc1ccc(-c2ccc(CCC(=O)O)c(Oc3ccc(C(C)(C)C)cc3)c2)cc1 [Compound 522]

>  <labelClass>
yes

$$$$
>  <molecule>
CC(C)(C)c1ccc(Oc2ccc(Oc3ccc(OC(F)(F)F)cc3)cc2CCC(=O)O)cc1 [Compound 100]

>  <labelClass>
no

$$$$
>  <molecule>
CCC(CC)Oc1ccc(-c2ccc(OC(F)(F)F)cc2)cc1N(CCCCc1ccccc1)C(=O)C(=O)O [Compound 369]

>  <labelClass>
no

$$$$
>  <molecule>
O=C(O)/C=C/c1ccc(-c2ccc(OC(F)(F)F)cc2)cc1Sc1ccccc1 [Compound 528]

>  <labelClass>
yes

$$$$
>  <molecule>
CC(C)(C)c1ccc(COc2cc(Oc3ccc(OC(F)(F)F)cc3)ccc2CCC(=O)O)cc1 [Compound 78]

>  <labelClass>
no

$$$$
>  <molecule>
CC(C)(C)c1ccc(COc2ccc(-c3ccc(OC(F)(F)F)cc3)cc2CC(=O)O)cc1 [Compound 9]

>  <labelClass>
no

$$$$
>  <molecule>
CC(C)(C)c1ccc(Oc2cc(Oc3ccc(OC(F)(F)F)cc3)ccc2OCC(=O)O)cc1 [Compound 538]

>  <labelClass>
no

$$$$
>  <molecule>
CCCCCCCc1ccc(-c2ccc(OC(F)(F)F)cc2)cc1N(CCCCc1ccccc1)C(=O)C(=O)O [Compound 371]

>  <labelClass>
yes

$$$$
>  <molecule>
CCCCCOc1cc(-c2cccc(C)c2)ccc1N(CCCCc1ccccc1)C(=O)C(=O)O [Compound 376]

>  <labelClass>
yes

$$$$
>  <molecule>
CC(C)c1ccccc1Oc1cc(-c2ccc(OC(F)(F)F)cc2)ccc1/C=C/C(=O)O [Compound 490]

>  <labelClass>
yes

$$$$
>  <molecule>
CC(C)(C)[C@H]1CC[C@@H](CN(C(=O)C(=O)O)c2ccc(-c3ccc(OC(F)(F)F)cc3)cc2)CC1 [Compound 680]

>  <labelClass>
yes

$$$$
>  <molecule>
O=C(O)C(=O)N(CCCCc1ccccc1)c1cc(-c2ccc(OC(F)(F)F)cc2)ccc1OCCCC1CCCCC1 [Compound 656]

>  <labelClass>
yes

$$$$
>  <molecule>
CCCCC1CCC(Oc2ccc(-c3ccc(OC(F)(F)F)cc3)cc2N(CCCCc2ccccc2)C(=O)C(=O)O)CC1 (stereo not shown) [Compound 637]

>  <labelClass>
no

$$$$
>  <molecule>
O=C(O)CCCCCCOc1ccc(-c2ccc(OC(F)(F)F)cc2)cc1N(CCCCc1ccccc1)C(=O)C(=O)O [Compound 633]

>  <labelClass>
yes

$$$$
>  <molecule>
CC(C)(C)c1ccc(Sc2cc(-c3ccc(OC(F)(F)F)cc3)ccc2/C=C/C(=O)O)cc1 [Compound 462]

>  <labelClass>
yes

$$$$
>  <molecule>
CCC(C)(C)c1ccc(Oc2cc(-c3ccc(OC(F)(F)F)cc3)ccc2CCC(=O)O)cc1 [Compound 475]

>  <labelClass>
yes

$$$$
>  <molecule>
CC(C)(C)c1ccc(Cc2cc(-c3ccc(OC(F)(F)F)cc3)ccc2OCC(=O)O)cc1 [Compound 550]

>  <labelClass>
no

$$$$
